test system: EKVX NSCLC; test: NCI tumour cell line growth inhibition, 48 h; in the data active means GI50 below about 0.43 µM; inactive means the rest
// allowed return values: active, inactive

Would you please look over these solved cases?
Query :: Which outcome did this test record for the compound O=c1[nH]cnc2c(C3NC(CO)C(O)C3O)c[nH]c12 (stereo not drawn) ?
Result :: inactive

Query :: Follow-up item: CC(C)=CCC/C(C)=C/CC/C(C)=C/CC/C=C(\C)CC/C=C(\C)CCC(=O)Nc1ccn(C2OC(CO)C(O)C2(F)F)c(=O)n1 (stereo not drawn)
Result :: active

Query :: Try this compound too: C[C@@H]1O[C@@H](O[C@H]2CC[C@@]3(C)[C@H](CCC4[C@@H]3C(O)C[C@]3(C)[C@@H](c5ccc(=O)oc5)CC[C@]43O)C2)[C@H](O)[C@H](O)[C@H]1O (stereo partly drawn)
Result :: active

Query :: Could you do the same for CC1=CC(=O)C(O)C2(C)C1CC(O)C13COC4(C)C(OC(=O)C41)C(O)C23 (stereo not drawn) , please?
Result :: inactive

Query :: // query: CN1CCC(n2cnc(-c3ccc(F)cc3)c2-c2ccnc(N)n2)CC1
Result :: inactive

Query :: Then COc1ccc(C(=O)N2c3ccccc3Sc3ccccc32)c(OC)c1 ?
Result :: inactive

Query :: Request: CN1CCN(CC(O)COc2c(Br)c(Br)c(Br)c3c2OC(C)(C)C3)CC1 (stereo not drawn)
Result :: inactive

Would you kindly look at the next entry?
Query :: Outcome? N#Cc1ccc(N=Cc2c([O-])ccc3ccccc23)cc1.[C-]#[O+].[C-]#[O+].[Ir]
Result :: inactive

====

test system: SK-MEL-5 melanoma; experiment: NCI tumour cell line growth inhibition, 48 h
Parameter: TGI

# example entries with known answers
Query :: Which TGI value is on record for Cc1ccc(S(=O)OC2C3CC4CC(C3)CC2C4)cc1 (stereo not drawn) ?
Result :: > 100 µM

Query :: And the next one, CN1CCC(n2cnc(-c3ccc(F)cc3)c2-c2ccnc(N)n2)CC1 ?
Result :: > 25 µM

---
Query :: Need TGI of O[C@H]1[C@H](O)[C@@H](O)[C@@]2(O)C[C@@H](O)[C@@H]1N2 , thanks.
Result :: > 100 µM

====

Task for the reader: assign each of the following compounds its reported TGI.
tested on: A549 NSCLC; test: NCI tumour cell line growth inhibition, 48 h

Below, each entry is followed by its recorded TGI result.
Query :: Which measured TGI value corresponds to C[C@@H]1O[C@@H](OC[C@H]2O[C@@H](OCCc3ccc(O)c(O)c3)[C@H](O)[C@@H](O)[C@@H]2OC(=O)/C=C/c2ccc(O)c(O)c2)[C@H](O)[C@H](O)[C@H]1O ?
Result :: > 100 µM

Query :: Query COc1cc2c(c(OC)c1OC)-c1ccc(SC)c(=O)cc1[C@@H](NC1OC(CO)C(O)C(O)C1O)CC2 (stereo partly drawn) next
Result :: > 100 µM

Query :: Next: COC(CN1C=C(Sc2ccccc2)CC1)OC
Result :: > 100 µM

# batch size: 8; output TGI per entry
1. COC(=O)c1cnn2c1n[n+]([O-])c1ccccc12
2. O=C(Oc1cccnc1)c1ccsc1Nc1ccnc(C(F)(F)F)c1
3. CC[C@@H](/C=C\CCC(=O)C[C@H](O)CCC=C(C)C)O[Si](C(C)C)(C(C)C)C(C)C
4. CCO/C=C1\N=C(c2ccccc2Br)OC1=O
5. CC1=NN(C(=O)CSc2nc3ccc(I)cc3c(=O)n2Cc2ccccc2)C(=O)C1
6. O=C(Cc1ccccc1)NN1C(=O)C(Cl)C1c1ccccc1O (stereo not drawn)
7. CC(C)(C)CN1CCn2c(nc3c(N)nccc32)S1
8. Brc1c(C#CCC2CCCCC2)ccc(C#CCC2CCCCC2)c1Br

Result ::
> 100 µM
> 100 µM
> 100 µM
> 100 µM
> 100 µM
> 100 µM
44.4 µM
> 100 µM

Hi there! I need TGI for each item below, if you can.
1. CCN1C(=O)N(CC)C2C1NN=c1s/c(=C3\C(=O)N(CCc4ccccc4)c4ccccc43)c(=O)n12 (stereo not drawn)
2. CC1OC(O[C@H]2/C=C/C=C/C=C/C=C/C=C/C=C/C=C/[C@H](C)[C@@H](O)[C@@H](C)[C@H](C)OC(=O)CC(O)CC(O)CCC(O)C(O)CC(O)C[C@]3(O)C[C@H](O)C(C(=O)O)C(C2)O3)C(O)[C@H](N)C1O (stereo partly drawn)

Result ::
> 39.5 µM
3.11 µM
